Target: SK678Siglec+Unique (SLBRSK678, GST fusion), wild-type, Streptococcus sanguinis strain SK678
Experiment: ELISA, biotinylated sialoglycan binding to immobilized GST-adhesin
Details: ELISA curves
Description: 20. FIGS. 10A, 10B, 10C, 10D, and 10E show chimeragenesis of Hsa-like adhesins. Dose-response curves of 10A wild-type GST-SK678Siglec+Unique, 10B wild-type GST-UB10712Siglec+Unique, and 10C wild-type GST-HsaSiglec+Unique to five selected ligands. D and E. Dose-response curves of the chimeras D. GST-SK678^Hsa-loops and E. UB10712^Hsa-loops which contain the CD, EF, and FG loops of Hsa.

- compound: "CC(=O)N[C@H]1[C@H]([C@H](O)[C@H](O)CO)O[C@@](O[C@H]2[C@@H](O)[C@@H](CO)O[C@@H](O[C@H]3[C@H](O)[C@@H](CO)OC(O)[C@@H]3NC(C)=O)[C@@H]2O)(C(=O)O)C[C@@H]1O (stereo partly shown) [sLe^C, Neu5Acα2-3Galβ1-3GlcNAc]"
  operator: ">"
  EC50 (µg/mL): 5
- compound: "CC(=O)N[C@H]1[C@H]([C@H](O)[C@H](O)CO)O[C@@](O[C@H]2[C@@H](O)[C@@H](CO)O[C@@H](O[C@H]3[C@H](O[C@@H]4O[C@@H](C)[C@@H](O)[C@@H](O)[C@@H]4O)[C@@H](NC(C)=O)C(O)O[C@@H]3COS(=O)(=O)O)[C@@H]2O)(C(=O)O)C[C@@H]1O (stereo partly drawn) [6S-sLe^X]"
  operator: "="
  EC50 (µg/mL): 0.63
- compound: "CC(=O)N[C@H]1[C@H]([C@H](O)[C@H](O)CO)O[C@@](O[C@H]2[C@@H](O)[C@@H](CO)O[C@@H](O[C@H]3[C@@H](O)[C@@H](CO)OC(O)[C@@H]3NC(C)=O)[C@@H]2O)(C(=O)O)C[C@@H]1O (stereo partly shown) [sTa, Neu5Acα2-3Galβ1-3GalNAc]"
  operator: ">"
  EC50 (µg/mL): 5
- compound: "CC(=O)N[C@H]1[C@H]([C@H](O)[C@H](O)CO)O[C@@](O[C@H]2[C@@H](O)[C@@H](CO)O[C@@H](O[C@H]3[C@H](O)[C@@H](NC(C)=O)C(O)O[C@@H]3CO)[C@@H]2O)(C(=O)O)C[C@@H]1O (stereo partly shown) [3′sLn, Neu5Acα2-3Galβ1-4GlcNAc]"
  operator: "="
  EC50 (µg/mL): 0.85

Hey, just so you know, these numbers are from patent US20230236193A1.
